- MEASUREMENT_TARGET: human farnesoid X receptor (Homo sapiens, UniProt Q96RI1)
- Construct: CMX-farnesoid X receptor (full length human farnesoid X receptor); expressed in transfected cells; host or cells: CV-1 African Green Monkey Kidney cells
- Sequence (Q96RI1 1-472 isoform Q96RI1-2): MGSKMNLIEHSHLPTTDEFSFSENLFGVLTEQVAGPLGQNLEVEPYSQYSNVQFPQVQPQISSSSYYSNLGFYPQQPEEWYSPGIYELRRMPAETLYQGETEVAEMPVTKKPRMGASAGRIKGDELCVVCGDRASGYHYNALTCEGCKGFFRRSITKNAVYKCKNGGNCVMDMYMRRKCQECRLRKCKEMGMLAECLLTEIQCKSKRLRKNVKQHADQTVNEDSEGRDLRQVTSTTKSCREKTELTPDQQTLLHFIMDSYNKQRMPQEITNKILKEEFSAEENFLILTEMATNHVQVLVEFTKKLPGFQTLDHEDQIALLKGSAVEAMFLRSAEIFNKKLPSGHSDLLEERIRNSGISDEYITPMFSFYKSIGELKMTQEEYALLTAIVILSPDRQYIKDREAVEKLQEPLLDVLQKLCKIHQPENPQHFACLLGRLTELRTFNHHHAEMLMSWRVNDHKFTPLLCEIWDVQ
- Sequence (P19793 whole entry partner): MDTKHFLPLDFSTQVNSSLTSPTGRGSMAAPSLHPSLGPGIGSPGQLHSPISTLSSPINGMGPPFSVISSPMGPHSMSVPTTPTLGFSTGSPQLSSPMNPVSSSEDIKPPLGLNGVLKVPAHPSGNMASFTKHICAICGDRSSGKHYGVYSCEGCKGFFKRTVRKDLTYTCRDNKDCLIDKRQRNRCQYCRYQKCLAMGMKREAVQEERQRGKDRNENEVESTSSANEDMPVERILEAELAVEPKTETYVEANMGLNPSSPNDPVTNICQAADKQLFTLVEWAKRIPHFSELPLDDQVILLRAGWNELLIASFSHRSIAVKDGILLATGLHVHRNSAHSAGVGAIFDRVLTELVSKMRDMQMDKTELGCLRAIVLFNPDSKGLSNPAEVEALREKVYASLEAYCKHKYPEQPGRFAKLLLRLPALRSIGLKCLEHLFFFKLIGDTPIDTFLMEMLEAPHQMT
- ASSAY_EXPLANATION: FXR in vitro assays (farnesoid X receptor/ECREx7 co-transfection assay, TR-FRET assay), Table I
- Format: cell-based
- REPORTED_CONDITIONS: agonist activity, one or more of the in vitro assays; read-out: EC50
VALUE_TYPE: EC50

stdin: What does the data say about its EC50? Entry: COCCOc1ccc2c3c([nH]c2c1)C(C(=O)OC(C)C)=CN(C(=O)c1ccc(F)c(F)c1)CC3(C)C [Example 105]
stdout: 0.1 to 1 µM

stdin: And the next one, CC(C)OC(=O)C1=CN(C(=O)c2cccc(CN3CCCCCC3)c2)CC(C)(C)c2c1[nH]c1ccccc21 [Example 152] ?
stdout: 0.01 to 0.1 µM

stdin: And the next one, CC(C)OC(=O)C1=CN(C(=O)c2ccccc2C(F)(F)F)CC(C)(C)c2c1[nH]c1ccccc21 [Example 64] ?
stdout: 0.01 to 0.1 µM

stdin: And the next one, CC(C)OC(=O)C1=CN(C(=O)c2cc(F)c(Cl)cc2F)CC(C)(C)c2c1[nH]c1ccccc21 [Example 149] ?
stdout: 0.01 to 0.1 µM

stdin: And the next one, CCN(CC)CCN1CCN(C(=O)N2C=C(C(=O)OC(C)C)c3[nH]c4ccccc4c3C(C)(C)C2)CC1 [Example 38] ?
stdout: 1 to 10 µM

stdin: And the next one, CC(C)OC(=O)C1=CN(C(=O)c2ccccc2OC(F)(F)F)CC(C)(C)c2c1[nH]c1ccccc21 [Example 70] ?
stdout: 0.1 to 1 µM

stdin: And the next one, CC(C)OC(=O)C1=CN(C(=O)c2cc(F)c(F)c(OCCN3CCCCC3)c2)CC(C)(C)c2c1[nH]c1ccccc21 [Example 180] ?
stdout: 0.01 to 0.1 µM

* * *

- MEASUREMENT_TARGET: human farnesoid X receptor (Homo sapiens, UniProt Q96RI1)
- Construct: CMX-farnesoid X receptor (full length human farnesoid X receptor); expressed in transfected cells; host or cells: CV-1 African Green Monkey Kidney cells
- ASSAY_EXPLANATION: FXR in vitro assays (farnesoid X receptor/ECREx7 co-transfection assay, TR-FRET assay), Table I
- Type: cell-based
- REPORTED_CONDITIONS: read-out: % Efficacy
- Description: The basic co-transfection protocol for measuring the farnesoid X receptor activity is as follows. CV-1 African Green Monkey Kidney cells were plated 24 hours before transfection to achieve approximately 70-80 percent confluency. […]
VALUE_TYPE: Emax

stdin: Hi! What's the reported Emax for CCN(CC)CCN1CCN(C(=O)N2C=C(C(=O)OC(C)C)c3[nH]c4ccccc4c3C(C)(C)C2)CC1 [Example 38] on human farnesoid X receptor (Homo sapiens, UniProt Q96RI1)?
stdout: 60 to 80%

stdin: And the next one, CC(C)OC(=O)C1=CN(C(=O)N2C[C@@H]3C[C@H]2CN3C)CC(C)(C)c2c1[nH]c1ccccc21 [Example 42] ?
stdout: > 100%

stdin: And the next one, CC(C)OC(=O)C1=CN(C(=O)N2CCOCC2)CC(C)(C)c2c1[nH]c1ccccc21 [Example 47] ?
stdout: > 100%

stdin: And the next one, CC(C)OC(=O)C1=CN(C(=O)c2cccc(F)c2)CC(C)(C)c2c1[nH]c1ccccc21 [Example 72] ?
stdout: > 100%

stdin: And the next one, CC(C)OC(=O)C1=CN(C(=O)c2cccc(Cl)c2)CC(C)(C)c2c1[nH]c1ccccc21 [Example 81] ?
stdout: > 100%

stdin: And the next one, CC(C)OC(=O)C1=CN(C(=O)c2c(F)ccc(F)c2Cl)CC(C)(C)c2c1[nH]c1ccccc21 [Example 61] ?
stdout: > 100%

stdin: And the next one, CC(C)OC(=O)C1=CN(C(=O)c2ccc(F)cc2Cl)CC(C)(C)c2c1[nH]c1ccccc21 [Example 111] ?
stdout: > 100%

stdin: And the next one, CC(C)OC(=O)C1=CN(C(=O)N2CCCCCC2)CC(C)(C)c2c1[nH]c1ccccc21 [Example 40] ?
stdout: > 100%

stdin: And the next one, CC(C)OC(=O)C1=CN(C(=O)N2CCCC(N(C)C)C2)CC(C)(C)c2c1[nH]c1ccccc21 (stereo not drawn) [Example 39] ?
stdout: > 100%

stdin: And the next one, CC(C)OC(=O)C1=CN(C(=O)N2CCC[C@@H](CN(C)C)C2)CC(C)(C)c2c1[nH]c1ccccc21 [Example 50] ?
stdout: 60 to 80%

stdin: And the next one, CC(C)OC(=O)C1=CN(C(=O)c2ccccc2)CC(C)(C)c2c1[nH]c1ccccc21 [Example 62] ?
stdout: > 100%

stdin: And the next one, CC(C)OC(=O)C1=CN(C(=O)c2cccc(CN3CCOCC3)c2)CC(C)(C)c2c1[nH]c1ccccc21 [Example 125] ?
stdout: > 100%

stdin: And the next one, CC1(C)CN(C(=O)c2ccc(F)c(F)c2)C=C(C(=O)OC[C@@H](O)CO)c2[nH]c3ccccc3c21 [Example 171] ?
stdout: > 100%

stdin: And the next one, COCCOc1ccc2c3c([nH]c2c1)C(C(=O)OC(C)C)=CN(C(=O)c1ccc(F)c(F)c1)CC3(C)C [Example 105] ?
stdout: 80 to 100%

stdin: And the next one, CC(C)OC(=O)C1=CN(C(=O)c2cccc(CN3CCN(S(=O)(=O)c4ccc(F)cc4)CC3)c2)CC(C)(C)c2c1[nH]c1ccccc21 [Example 168] ?
stdout: > 100%

Values compiled from patent US20090203577A1.
